# tested-on: Dimeric Human Ang-2FD conjugated to human IgG1 (human)
# Sequence (chain, as listed by the source limits assumed): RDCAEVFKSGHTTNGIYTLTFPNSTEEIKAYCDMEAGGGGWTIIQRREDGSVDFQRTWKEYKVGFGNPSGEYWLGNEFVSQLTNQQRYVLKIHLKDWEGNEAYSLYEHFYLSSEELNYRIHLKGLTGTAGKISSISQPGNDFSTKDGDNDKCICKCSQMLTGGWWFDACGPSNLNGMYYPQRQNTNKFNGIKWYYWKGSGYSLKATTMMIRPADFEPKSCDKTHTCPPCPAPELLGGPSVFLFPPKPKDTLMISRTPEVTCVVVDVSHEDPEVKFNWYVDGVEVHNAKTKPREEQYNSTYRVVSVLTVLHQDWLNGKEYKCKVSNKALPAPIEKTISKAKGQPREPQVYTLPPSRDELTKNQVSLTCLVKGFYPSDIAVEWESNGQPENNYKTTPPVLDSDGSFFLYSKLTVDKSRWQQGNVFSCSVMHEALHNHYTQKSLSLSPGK
# method-summary: ELISA, 16.67 nM antibody, Ang-2FD-hFc binding to coated hTie-2-mFc
measure: Percent Blocking of Ang-2FD Binding to Tie-2 (%)
Note: unit % is implicit; provide only the numeric part.

Documented Percent Blocking of Ang-2FD Binding to Tie-2 of H2M743N (antibody, V domains shown) VH: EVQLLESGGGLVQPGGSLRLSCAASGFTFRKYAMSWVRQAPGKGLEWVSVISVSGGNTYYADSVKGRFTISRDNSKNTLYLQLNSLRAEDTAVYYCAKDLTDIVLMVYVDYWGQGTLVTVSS VL: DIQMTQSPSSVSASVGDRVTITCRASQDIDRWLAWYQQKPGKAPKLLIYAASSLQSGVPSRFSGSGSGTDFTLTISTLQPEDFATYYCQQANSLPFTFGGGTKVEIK : 99.6

Reference source: patent US20130129722A1
